- testedTarget: Geranylgeranyl transferase type I (Homo sapiens, UniProt P49354+P53609)
- testSummary: Inhibitory activity against Geranylgeranyl transferase type I
pIC50: −log10 of the molar value.
propertyName: pIC50

INSERT INTO measurements (compoundstructure, valuemeasured) VALUES
  ('Clc1sccc1CO[C@@H]1c2ccc3ccccc3c2S[C@@H]1Cn1ccnc1', 4.82),
  ('Clc1sccc1CO[C@@H]1c2ccccc2S[C@@H]1Cn1ccnc1', 4.33),
  ('Fc1ccc2c(c1)[C@@H](OCc1ccc(Cl)c(Cl)c1)[C@@H](Cn1ccnc1)S2', 5.01),
  ('Fc1ccc2c(c1)[C@@H](OCc1ccsc1Cl)[C@@H](Cn1ccnc1)S2', 4.47),
  ('Clc1ccc2c(c1)S[C@H](Cn1ccnc1)[C@@H]2OCc1cccnc1Cl', 5.48),
  ('Clc1cccc2c1[C@@H](OCc1ccsc1Cl)[C@@H](Cn1ccnc1)S2', 4.44),
  ('Clc1ccc2c(c1)S[C@H](Cn1ccnc1)[C@@H]2OCc1ccc(Cl)c(Cl)c1', 4.89),
  ('Clc1sccc1CO[C@@H]1c2cc(Br)ccc2S[C@@H]1Cn1ccnc1', 4.85);

====

- testedTarget: Protein farnesyltransferase (Homo sapiens, UniProt P49354+P49356)
- testSummary: Inhibition of Farnesyltransferase
- Format: protein-complex assay
propertyName: IC50 (µM)

INSERT INTO assay_data (compound, resultunit, valuemeasured) VALUES
  ('Clc1ccc(COC2c3c(Cl)cccc3SC2Cn2ccnc2)cc1 (stereo unspecified)', 'µM', 16);

====

- testedTarget: Protein farnesyl/geranylgeranyl transferase (Homo sapiens) (UniProt P49354+P49356+P53609)
- testSummary: Selectivity was expressed as the ratio of the Geranylgeranyl transferase type I to FPT inhibitory activities (IC50)
- Type: protein-complex assay
Mark True for reported Selectivity ratio of 10 or greater; mark False for anything smaller.

INSERT INTO results (compound, category) VALUES
  ('Clc1ccc2c(c1)S[C@H](Cn1ccnc1)[C@@H]2OCc1ccc(Cl)s1', 'False'),
  ('Clc1sccc1CO[C@@H]1c2ccccc2S[C@@H]1Cn1ccnc1', 'True'),
  ('Clc1cccc2c1[C@@H](OCc1ccsc1Cl)[C@@H](Cn1ccnc1)S2', 'True'),
  ('Clc1cc2c(cc1Cl)C(OCc1ccsc1Cl)C(Cn1ccnc1)S2 (stereo not given)', 'False'),
  ('Clc1ccc(COC2c3cc(Cl)ccc3SC2Cn2ccnc2)c(Cl)c1 (stereo not given)', 'False'),
  ('Clc1ccc2c(c1)S[C@H](Cn1ccnc1)[C@@H]2OCc1c(Cl)sc2ccccc12', 'True'),
  ('Clc1ccc2c(c1)S[C@H](Cn1ccnc1)[C@@H]2OCc1cccnc1Cl', 'False'),
  ('Clc1ccc2c(c1)S[C@H](Cn1ccnc1)[C@@H]2OCc1ccc(Cl)c(Cl)c1', 'True');

====

The molecules listed here are annotated with their Selectivity ratio.
- testedTarget: Protein farnesyl/geranylgeranyl transferase (Homo sapiens) (UniProt P49354+P49356+P53609)
- testSummary: Selectivity was expressed as the ratio of the Geranylgeranyl transferase type I to FPT inhibitory activities (IC50)
- Type: protein-complex assay
propertyName: Selectivity ratio

INSERT INTO measurements (molecule, propertyname, valuemeasured) VALUES
  ('Clc1ccc2c(c1)S[C@H](Cn1ccnc1)[C@@H]2OCc1cnc2cc3c(cc2c1Cl)OCO3', 'Selectivity ratio', 0.6),
  ('Fc1ccc2c(c1)[C@@H](OCc1ccc(Cl)c(Cl)c1)[C@@H](Cn1ccnc1)S2', 'Selectivity ratio', 14),
  ('Clc1sccc1CO[C@@H]1c2c(ccc3c2CCCC3)S[C@@H]1Cn1ccnc1', 'Selectivity ratio', 84),
  ('Clc1sccc1CO[C@@H]1c2cc(Br)ccc2S[C@@H]1Cn1ccnc1', 'Selectivity ratio', 12.9),
  ('Fc1ccc2c(c1)[C@@H](OCc1ccc(Cl)cc1Cl)[C@@H](Cn1ccnc1)S2', 'Selectivity ratio', 26.1),
  ('Clc1ccc(COC2c3c(Cl)cc(Cl)cc3SC2Cn2ccnc2)cc1 (configuration not stated)', 'Selectivity ratio', 13.4),
  ('Fc1ccc2c(c1)[C@@H](OCc1ccsc1Cl)[C@@H](Cn1ccnc1)S2', 'Selectivity ratio', 18.9);

These measurements were taken from ChEMBL document CHEMBL1130261.
